Assay: chemical genetic growth profiling, strain panel (AID 1159580);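 also: tested at 20 µM; growth read once vehicle control cultures reached saturation at 30 °C; 1 = growth at the plate median or of vehicle wells; lower values mean less growth of the strain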
Conditions: S. cerevisiae deletion strains, growth OD, locus YLR342W, strain FKS1, active compounds read low
Hit rate of the full screen: of about 5,500 compounds, about 2,000 (36%) were called active. About 18% were inconclusive and are not listed. The list shows a part of the results.
metric.name: normalized growth
Could you respond with only the numeric value?

Worked examples, 3 compounds total:
compound=CCOC(=O)c1oc2c(OC)c(O)cc(O)c2c(=O)c1-c1cc(OC)c(OC)c(OC)c1 metric_name="normalized growth" meas_value=0.971
compound=CC(=O)NCCCS(=O)(=O)O metric_name="normalized growth" meas_value=1.01
compound=OC[C@@H](O)[C@@H](O[C@@H]1O[C@H](CO)[C@@H](O)[C@H](O)[C@H]1O)[C@H](O)[C@@H](O)CO metric_name="normalized growth" meas_value=0.974

For reference, reported normalized growth for C=C(C)[C@H]1CC=C(C(=O)O)CC1 stands at 0.976

Quick note, normalized growth for CC(C)=CCC[C@](C)(O)C1CC=C(C)CC1 (stereo partly drawn) landed at 0.98

Entry C=CC(C)(O)CC/C=C(\C)CCC=C(C)C (stereo not drawn) ; normalized growth = 0.974

Please fill in: normalized growth reported for O=C(NC(=O)c1c(F)cccc1F)Nc1ccc(Cl)cc1 = 1.02

Per the records, this compound ( COc1c2c(cc3c1OCO3)CCN(C)C2 ) has normalized growth equal to 1

----------
Assay: chemical genetic growth profiling, strain panel (AID 1159580);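 also: tested at 20 µM; growth read once vehicle control cultures reached saturation at 30 °C; 1 = growth at the plate median or of vehicle wells; lower values mean less growth of the strain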
Conditions: S. cerevisiae deletion strains, growth OD, locus YJR066W, strain TOR1
The whole screen tested about 5,500 compounds, of which about 2,000 (36%) were called active. Roughly 18% stayed inconclusive and do not appear here. No stated cut-off is given here; in the data, active means normalized growth mostly below about 0.91 (no sharp cut-off); inconclusive means no clear call, values can overlap the other calls; inactive means mostly above about 0.92. The list shows a part of the results.
Permitted responses: active, inactive

Would you please look over these solved cases?
compound="O=C(O)CCCCC1CCSS1 (centres undefined)" answer_label=active
compound=Cc1ccc(S(=O)(=O)CCSC2=CC(=O)CC(C)(C)S2)cc1 answer_label=inactive
compound=O=C(O)c1ccccc1Nc1cccc(C(F)(F)F)c1 answer_label=active
compound=O=C(O)/C=C/C=C/c1ccccc1 answer_label=active
compound=Cc1cccc(Cl)c1/C=N\NC(N)=S answer_label=inactive
compound=O=C(NC(=O)c1c(F)cccc1F)Nc1ccc(Cl)cc1 answer_label=inactive
compound=C=C(C)[C@H]1CC=C(C(=O)O)CC1 answer_label=active
compound=O=C(O)C1=CCNCC1 answer_label=inactive

Assay outcome for Cc1cc(Br)ccc1-n1c(Sc2c([N+](=O)[O-])cc(C(F)(F)F)cc2[N+](=O)[O-])nc2ccccc2c1=O : what was it?
inactive

----------
Experiment: chemical genetic growth profiling, strain panel (AID 1159580);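 also: tested at 20 µM; growth read once vehicle control cultures reached saturation at 30 °C; 1 = growth at the plate median or of vehicle wells; lower values mean less growth of the strain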
Conditions: S. cerevisiae deletion strains, growth OD, locus YJL164C, strain tpk1, active compounds read low
The whole screen tested about 5,500 compounds, of which about 2,000 (36%) were called active. Roughly 18% stayed inconclusive and do not appear here. The list shows a part of the results.
satisfied if normalized growth is below 0.08. not satisfied if not; exact matches included in not satisfied.

// below: answered compounds
smiles_representation=Oc1c(I)cc(I)c2cccnc12 answer_label="not satisfied"
smiles_representation=CCN(CC)CCOc1ccc2c(c1)C(=O)c1cc(OCCN(CC)CC)ccc1-2 answer_label="not satisfied"
smiles_representation=OC[C@@H](O)[C@@H](O[C@@H]1O[C@H](CO)[C@@H](O)[C@H](O)[C@H]1O)[C@H](O)[C@@H](O)CO answer_label="not satisfied"
smiles_representation=CC(=O)Oc1ccc(Cl)c2cccnc12 answer_label=satisfied

Then this compound:
Strictly below 0.08: is that where normalized growth of CCN(CC)CCOc1ccc(/C(=C(\Cl)c2ccccc2)c2ccccc2)cc1 sits?
satisfied
